Value source: patent EP0182317A2

- assay_comment: 50 % lethal dose from toxic deaths in the Ehrlich carcinoma experiment
- Assay type: in vivo, male ICR mouse
- setup_conditions: mouse, in vivo, ip; mice bearing Ehrlich carcinoma, in the abdomen once a day for 7 days
measurement_kind: LD50 at 720 h

Sample records with LD50 at 720 h:
{"compound": "CC(C)O[Se](=O)OC(C)C", "LD50 at 720 h": "4 to 8 mg/kg"}
{"compound": "O=[Se](O)c1ccccc1", "LD50 at 720 h": "> 16 mg/kg"}

For this compound ( `CCO[Se](=O)OCC` ), measured LD50 at 720 h is 4 to 8 mg/kg

For this compound ( `O=[Se](OCCCl)OCCCl` ), measured LD50 at 720 h is 8 mg/kg

For this compound ( `CCCO[Se](=O)OCCC` ), measured LD50 at 720 h is 8 mg/kg

For this compound ( `O=[Se]1OCCCO1` ), measured LD50 at 720 h is 4 to 8 mg/kg
